Recorded values, source PubChem BioAssay AID463173.

# Test system: DeltatarO mutant
# assay-notes: S. aureus survival, RN4220 and DeltatarO strains – OD600, teichoic acid synthesis inhibitors, primary screen (AID 463173)
# condition-context: S. aureus RN4220 wild type/DeltatarO growth, OD600, 18 h, screened at 18.75 µg/mL (by protocol)
About 4,300 (8.3%) of roughly 52,000 compounds were called active. Rule as the data show it: active = survival mostly below about 52% (no sharp cut-off); inactive = mostly above about 56%. The full list was thinned out, with actives kept by preference.
Labels: TRUE (active), FALSE (inactive)

{"columns": ["compound", "label-value"],
 "data": [
  ["O=C(CSc1c2c(nc3ccc(Cl)cc13)CCCC2)N1CCN(c2cccc(Cl)c2)CC1", "TRUE"],
  ["COc1ccccc1C(=O)Nc1c(C(=O)N(C)c2ccccc2)sc2nc(C)cc(C)c12", "FALSE"],
  ["COc1cccc(-c2[nH]c3c(c2-c2c(-n4cccc4)n(C)c(=O)[nH]c2=O)c(=O)[nH]c(=O)n3C)c1", "TRUE"],
  ["O=C(CCn1c(=O)c2cccn2c2ccc(F)cc21)NCCc1ccccc1", "TRUE"],
  ["Cc1cccc(C(=O)N2CCCCC2CCN2CCCCC2)c1 (stereo not given)", "FALSE"],
  ["CC1CCCCN1C(=O)Cn1nnc2c(cnn2-c2ccccc2)c1=O (stereo not given)", "FALSE"],
  ["COc1ccc(CNC(=O)CSc2c3c(nc4ccc(Cl)cc24)CCCC3)cc1", "FALSE"],
  ["Cc1cc2oc(C(=O)Nc3c(C)n(C)n(-c4ccccc4)c3=O)cc(=O)c2cc1C", "FALSE"],
  ["CSc1ncc2c(n1)-c1ccccc1N(Cc1ccc(Cl)cc1)S2(=O)=O", "FALSE"],
  ["O=C(CSc1c2c(nc3ccc(Cl)cc13)CCCC2)N1CCN(c2ccc(Cl)cc2)CC1", "TRUE"]
]}
